# TARGET SYSTEM: UniProt Q13309
# Sequence (Q13309 whole entry, species assumed): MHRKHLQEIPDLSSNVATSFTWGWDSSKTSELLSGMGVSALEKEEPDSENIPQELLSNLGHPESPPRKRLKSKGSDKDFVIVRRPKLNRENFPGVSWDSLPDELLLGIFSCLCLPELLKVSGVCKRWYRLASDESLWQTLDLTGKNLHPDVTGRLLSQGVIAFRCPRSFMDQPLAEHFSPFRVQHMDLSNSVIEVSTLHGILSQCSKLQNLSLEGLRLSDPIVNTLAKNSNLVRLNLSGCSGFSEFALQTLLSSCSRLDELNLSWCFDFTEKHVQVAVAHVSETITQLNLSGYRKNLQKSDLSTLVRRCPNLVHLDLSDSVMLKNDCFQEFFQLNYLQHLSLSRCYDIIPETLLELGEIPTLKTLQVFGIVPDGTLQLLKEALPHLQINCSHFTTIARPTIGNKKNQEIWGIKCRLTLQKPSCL
# Sequence (P63208 whole entry partner, species assumed): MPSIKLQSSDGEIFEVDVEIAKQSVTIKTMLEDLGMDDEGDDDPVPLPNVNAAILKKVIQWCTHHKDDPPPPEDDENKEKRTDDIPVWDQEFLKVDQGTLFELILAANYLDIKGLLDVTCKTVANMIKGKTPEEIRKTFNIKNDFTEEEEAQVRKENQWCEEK
# Sequence (Q13616 whole entry partner, species assumed): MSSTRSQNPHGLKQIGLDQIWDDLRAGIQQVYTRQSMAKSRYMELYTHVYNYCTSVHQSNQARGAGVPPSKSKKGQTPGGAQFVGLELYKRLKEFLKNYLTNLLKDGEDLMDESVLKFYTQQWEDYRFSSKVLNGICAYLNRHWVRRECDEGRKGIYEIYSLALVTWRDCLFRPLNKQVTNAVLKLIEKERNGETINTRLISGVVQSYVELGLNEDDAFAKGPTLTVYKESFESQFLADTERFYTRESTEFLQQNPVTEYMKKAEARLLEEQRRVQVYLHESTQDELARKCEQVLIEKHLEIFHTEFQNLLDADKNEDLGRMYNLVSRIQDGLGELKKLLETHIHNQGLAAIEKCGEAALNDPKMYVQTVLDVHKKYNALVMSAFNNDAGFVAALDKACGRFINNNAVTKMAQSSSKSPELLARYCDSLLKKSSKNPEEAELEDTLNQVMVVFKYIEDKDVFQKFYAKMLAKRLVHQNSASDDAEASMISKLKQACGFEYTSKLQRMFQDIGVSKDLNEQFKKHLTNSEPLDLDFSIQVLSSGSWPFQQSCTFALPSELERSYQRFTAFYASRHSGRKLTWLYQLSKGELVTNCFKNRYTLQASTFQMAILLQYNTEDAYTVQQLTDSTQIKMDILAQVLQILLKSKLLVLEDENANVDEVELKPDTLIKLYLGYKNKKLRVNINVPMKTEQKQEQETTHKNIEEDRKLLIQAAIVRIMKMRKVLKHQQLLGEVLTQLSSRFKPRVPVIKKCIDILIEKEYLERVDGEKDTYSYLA
# Sequence (P62877 whole entry partner, species assumed): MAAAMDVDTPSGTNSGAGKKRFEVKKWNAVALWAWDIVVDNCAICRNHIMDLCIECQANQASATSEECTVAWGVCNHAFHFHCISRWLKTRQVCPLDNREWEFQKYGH
# PROTOCOL DESCRIPTION: Selectivity assay vs other E3s: Skp2
# Type: biochemical
# PROTOCOL CONDITIONS: read-out: % Inhibition Skp2 @ 10 μM
Starred links: 1 amine or outer side, 2 acyl side, 3 side chain; linkers in the order of their positions; H or OH if unused. Non-standard residues stand in square brackets, D forms with d. Residues, ends and D or L forms follow the SMILES beside them. *: point of attachment. Phe(3-F) = N[C@@H](Cc1cccc(F)c1)C(=O)O; 1Nal = N[C@@H](Cc1cccc2ccccc12)C(=O)O; Suc = O=C(CCC(=O)[*:2])[*:1]; Tos = Cc1ccc(S(=O)(=O)*)cc1
PROPERTY LABEL: inhibition at 10 µM (%)

>>> obs_value("NC(=O)[C@H](CCC(=O)O)NC(=O)[C@H](Cc1cccc2ccccc12)NC(=O)[C@H](Cc1ccc(O)cc1)NC(=O)CNC(=O)[C@H](CCC(=O)O)NC(=O)CCC(=O)O [UBP009, Suc-EGY1NalE-NH2] (Suc-EGY[1Nal]E-NH2)")
0
>>> obs_value("Cc1ccc(S(=O)(=O)N[C@H](CC(=O)O)C(=O)N[C@@H](CC(=O)O)C(=O)NCC(=O)N[C@@H](Cc2cccc(F)c2)C(=O)N[C@@H](Cc2c[nH]c3ccccc23)C(=O)N[C@@H](CC(=O)O)C(N)=O)cc1 [UBP028, Ts-dDGF(3F)WD-NH2] (Tos-[dD]DG[Phe(3-F)]WD-NH2)")
0

Cited source for all entries: patent US20190106460A1
